Test name: Stability of cannabinoid and Vitamin E components of Beverage 1 (AB White) stored at 8° C. and 21-25° C., LCMSMS over 570 days
Assay type: physicochemical
Condition details: beverage stored at 8° C., day 60
Quantity measured: Stability in AB White, 8° C. (content by LCMSMS)
Field: value (include unit after the number)

[ask] What measured Stability in AB White, 8° C. (content by LCMSMS) goes with C=C(C)[C@@H]1CCC(C)=C[C@H]1c1c(O)cc(CCC)cc1O ?
[reply] 0.143 µg/mL

[ask] What measured Stability in AB White, 8° C. (content by LCMSMS) goes with CCCCCc1cc(O)c2c(c1)OC(C)(C)[C@@H]1CCC(C)=C[C@@H]21 [D9 THC, delta-9-tetrahydrocannabinol, reference compound] ?
[reply] 11.77 µg/mL

[ask] What measured Stability in AB White, 8° C. (content by LCMSMS) goes with CCCCCc1cc(O)c(C/C=C(\C)CCC=C(C)C)c(O)c1 ?
[reply] 4.68 µg/mL
